- Assay summary: S16 Schwann cell viability assay (CellTiter-Glo assay) (AID 624031); note: nearly all actives have a fitted effect of over 70% in size
- Assay conditions: S16 rat Schwann cells viability, 24 h; series mostly up to 57.5 µM
Records with an inconclusive call do not appear. Calls of active or inactive are those of the source. Calls come from the whole dose curve; as a rule, active = well fitted cell-killing curve with a large enough effect; inconclusive = small, poorly fitted or top-dose-only effect, or effect the other way; inactive = flat fitted curve, though single readings scatter.
Could you please pick one outcome from this set? Y for active, N for inactive

> print(dat)
                                   molecule  class.name
1  C=CCNC1=C2C[C@@H](C)C[C@H](OC)[C@H](O)[C@@H](C)/C=C(\C)[C@H](OC(N)=O)[C@@H](OC)/C=C\C=C(/C)C(=O)NC(=CC1=O)C2=O           Y
2  COC1C(OC(=O)/C=C/C=C/C=C/C=C/C(=O)O)CCC2(CO2)C1C1(C)OC1CC=C(C)C (centres undefined)           N
3  CN[C@H]1CC[C@@H](c2ccc(Cl)c(Cl)c2)c2ccccc21           Y

Here's the next entry for you.
## Task What was the test verdict on `CCCOc1ccc2nc(NC(=O)OC)sc2c1` ?
## Result N

====

- System: Zika virus NS2B-NS3 protease (linked construct)
- Assay summary: Primary screen NINDS Rhodamine qHTS for Zika virus inhibitors (AID 1347160); note: nearly all actives have a fitted effect of over 55% in size
- Assay conditions: purified NS2B-NS3 protease, Rhodamine110 substrate fluorescence; series mostly up to 57.1 µM
Records with an inconclusive call do not appear. Calls of active or inactive are those of the source. The call rests on the fitted dose curve; in most records, active means well fitted inhibition curve with a large enough effect; inconclusive means small, poorly fitted or top-dose-only effect; inactive means no such curve, though single readings can be large or run the other way.
Could you please pick one outcome from this set? active, inactive

Compound	System	Class name
Cc1ccc(CNc2ncnc3ccc(-c4ccc(CO)o4)cc23)o1	Zika virus NS2B-NS3 protease (linked construct)	inactive
COc1ccccc1OCCN1CC(COc2cccc3[nH]c4ccccc4c23)OCC1=O (stereo not drawn)	Zika virus NS2B-NS3 protease (linked construct)	inactive
Cc1ccc(S(=O)(=O)N2CCC[C@H]2c2ccc(F)cc2)cc1	Zika virus NS2B-NS3 protease (linked construct)	inactive
O=C(NCCCc1ccccc1)c1cccc(-c2cc(O)c3ncccc3c2)c1	Zika virus NS2B-NS3 protease (linked construct)	inactive
CC1CCCC(O)CC(=O)c2c(O)cc(O)cc2CC(=O)O1 (stereo not drawn)	Zika virus NS2B-NS3 protease (linked construct)	inactive

## Task What was the test verdict on COC1C=C(C)C(O)(CO)C2(C)CCCC(C)(C)C12 (stereo not drawn) ?
## Result inactive

## Task For `COc1cc(-n2cnc3cc(-c4ccc(Cl)cc4)sc3c2=O)ccc1OCCN1CCCC1` then?
## Result inactive

## Task For `C#CCNCc1cc2cc(OCc3ccccc3)ccc2[nH]1` then?
## Result inactive

## Task For `O=C(Nc1ccccc1)N1CCC(Cc2cnc3ccccc3c2)CC1` then?
## Result inactive

## Task For `Cc1cn2c(n1)Cc1ccc(Cl)cc1C(c1ccc(N)cc1)=N2` then?
## Result inactive

## Task For `COc1ccc(CCc2nc3c(C)c(-c4c(C)noc4C)c(C)cc3n2CCN2CCOCC2)cc1` then?
## Result inactive

## Task For `Cc1cc2c(N3CCCC3)nc(N3CCCC3)nc2n1C` then?
## Result inactive

## Task For CCCC(Nc1nc(-c2ccc(NC(=O)NCC)c(OC)c2)ncc1C)c1cccnc1 (stereo not drawn) then?
## Result inactive

====

- System: Hek293T
- Assay summary: Primary qHTS to identify gynecologic anti-cancer compounds using libraries of approved drugs and bioactive compounds (AID 1345084); note: nearly all actives have a fitted effect of over 55% in size
- Assay conditions: Gynecologic cancer cell panel viability, ATPlite luminescence, 48 h, control line for the selectivity index; series mostly up to 57.5 µM
Results filed as inconclusive are left out. Activity calls are given as the source filed them. Calls follow the shape of the dose curve; as a rule, active = well fitted cell-killing curve with a large enough effect; inconclusive = small, poorly fitted or top-dose-only effect, or effect the other way; inactive = flat fitted curve, though single readings scatter.
Could you please pick one outcome from this set? active, inactive

Solved cases (5 shown):
Molecule	System	Class name
Cc1ccc(C(C)C)c(O[C@@H]2O[C@H](CO)[C@@H](O)[C@H](O)[C@H]2O)c1	Hek293T	inactive
CCN(c1cc(-c2ccc(CN3CCOCC3)cc2)cc(C(=O)NCc2c(C)cc(C)[nH]c2=O)c1C)C1CCOCC1	Hek293T	inactive
CC(=O)O[C@H]1CC(C)(C)CC2[C@]13CO[C@@]21CCC2[C@@]4(C)CC[C@H](O[C@@H]5OC[C@H](O[C@@H]6O[C@H](CO)[C@@H](O)[C@H](O)[C@H]6O[C@@H]6OC[C@@H](O[C@@H]7O[C@H](CO)[C@@H](O)[C@H](O)[C@H]7O)[C@H](O)[C@H]6O)[C@H](O)[C@H]5O[C@@H]5O[C@H](CO)[C@@H](O)[C@H](O)[C@H]5O)[C@@](C)(CO)C4CC[C@@]2(C)[C@]1(C)C[C@H]3O (some centres undefined)	Hek293T	active
C=C[C@@]12COC(=O)C(=C)[C@@H]1[C@@H](O)[C@H](C(=C)C(=O)OC)[C@@H](O)C2	Hek293T	inactive
CC(=O)OC1C(O)CC2(C)C(CCC3(C)C2CC=C2C4C5(CCC(CO[C@@H]6O[C@H](CO)[C@@H](O)[C@H](O)[C@H]6O)(OC5=O)C4(C)O)C(O)CC23C)C1(C)C (some centres undefined)	Hek293T	inactive

## Task What was the test verdict on CN(C)CCC(CSc1ccccc1)Nc1ccc(S(=O)(=O)NC(=O)c2ccc(N3CCN(Cc4ccccc4-c4ccc(Cl)cc4)CC3)cc2)cc1[N+](=O)[O-] (centres undefined) ?
## Result inactive

## Task For CCOc1cc(C(C)(C)C)ccc1C1=NC(C)(c2ccc(Cl)cc2)C(C)(c2ccc(Cl)cc2)N1C(=O)N1CCN(CCCS(C)(=O)=O)CC1 (centres undefined) then?
## Result inactive
